tested on: SK-MEL-2; test: NCI tumour cell line growth inhibition, 48 h
Activity calls are given as the source filed them. No stated cut-off is given here; in the data, active = GI50 up to about 1.1 µM and inactive = higher.
Respond using exactly one of the listed classes: Y = active, N = inactive

>  <Compound>
O=c1[nH]cc(C(F)(C(F)(F)F)C(F)(F)F)c(=O)[nH]1

>  <Label Class>
N

$$$$
>  <Compound>
NN/C(=N\S(=O)(=O)c1cccc2nsnc12)Nc1ccc(Cl)cc1

>  <Label Class>
N

$$$$
>  <Compound>
CC(=O)C(I(OS(=O)(=O)c1ccc(C)cc1)c1ccccc1)=P(c1ccccc1)(c1ccccc1)c1ccccc1

>  <Label Class>
N

$$$$
>  <Compound>
COc1cc2c(c(OC)c1OC)-c1ccc(SC)c(=O)cc1C(NC=O)CC2 (configuration not stated)

>  <Label Class>
Y

$$$$
>  <Compound>
CC(C(=O)N1c2ccccc2Sc2ccccc21)N1c2ccccc2Sc2ccccc21 (configuration not stated)

>  <Label Class>
N

$$$$

[Q] // outcome(item) with item = "O=C1c2ccccc2C(=O)N1CCCC(=O)n1cc(F)c(=O)[nH]c1=O"
[A] N

[Q] In this assay, the call recorded for "CCC(=O)O[C@H]1CC[C@H]2[C@@H]3CCC4=C/C(=N/NC(=O)c5cccc6c(=O)c7ccccc7[nH]c56)CC[C@]4(C)[C@H]3CC[C@]12C" was what?
[A] N

----------
system: UO-31; test: NCI tumour cell line growth inhibition, 48 h
Active and inactive are the calls of the source. Rule as the data show it: active = GI50 up to about 1.1 µM and inactive = higher.
A correct response names exactly one class from Yes (active), No (inactive)

>  <Compound>
C=C1CC(OC)(C(O)C(=O)N[C@H]2OCO[C@H]3C2O[C@H](C[C@@H](COC)OC)C(C)(C)C3OC)O[C@H](C)[C@@H]1C (stereo not given in full)

>  <Label Class>
Yes

$$$$
>  <Compound>
CCCCCC1=CC(=O)C1(Cl)Cl

>  <Label Class>
No

$$$$
>  <Compound>
CCOC(=O)c1c(O)nc2cccc3c2c1-c1cccnc1S3

>  <Label Class>
No

$$$$
>  <Compound>
COc1ccc2c(c1)-c1nc(=O)n(CCCN(C)C)c3ccc([N+](=O)[O-])c(c13)N2

>  <Label Class>
Yes

$$$$

Attention now turns to another entry.
[Q] Any idea what this test logged for "O=C(CCn1[nH]c(=O)c(Cl)c(Cl)c1=O)NNC(=O)C[n+]1ccccc1" ?
[A] No

----------
GI50 overview
tested on: OVCAR-3; test: NCI tumour cell line growth inhibition, 48 h
Active and inactive are the calls of the source. No stated cut-off is given here; in the data, active = GI50 up to about 1.1 µM and inactive = higher.

[Q] What measured GI50 goes with "CC(=O)n1c2ccc(Br)cc2c2nc3ccccc3nc21" ?
[A] > 100 µM (inactive)

[Q] Item C=C1C(=O)C[C@@]23CCC[C@@]12CC(OCOC)C3 (stereo partly specified) has what recorded GI50?
[A] 2.72 µM (inactive)

[Q] Look at this molecule and give its reported GI50. COC(=O)C1(Cc2cccc(Cl)c2)CCCCCCN1C(=O)c1ccccc1 (stereo unspecified)
[A] 6.71 µM (inactive)

[Q] Query: GI50; subject: "CCN(CC)C(=S)N/N=C/c1ccccn1"
[A] < 0.01 µM (active)

[Q] Please report the recorded GI50 for "O=C(CC(O)(C(F)(F)F)C(F)(F)F)c1cc(CC(=O)C(O)(C(F)(F)F)C(F)(F)F)cc(CC(=O)C(O)(C(F)(F)F)C(F)(F)F)c1" .
[A] 0.454 µM (active)

----------
test system: UO-31; experiment: NCI tumour cell line growth inhibition, 48 h
The source made the active and inactive calls. Cut-off read from the data, not from the text of the source: active = GI50 up to about 1.1 µM and inactive = higher.
Metric Name: GI50

Use the examples below as a reference point.
>  <Compound>
CC(=O)Oc1ccc2c(c1)C(=O)c1nc(C)c(C)nc1C2=O

>  <GI50>
> 74.6 µM (inactive)

$$$$
>  <Compound>
COC(=O)c1c(O)ccc2c1c1c(n2Cc2ccccc2)C(=O)c2ccccc2C1

>  <GI50>
49.4 µM (inactive)

$$$$
>  <Compound>
Nc1nc(I)nc2c1ncn2C1OC(COS(N)(=O)=O)C(O)C1O (configuration not stated)

>  <GI50>
0.0187 µM (active)

$$$$
>  <Compound>
CCN(CC)C(=S)Oc1cc2oc(=O)cc(C)c2cc1Cl

>  <GI50>
> 100 µM (inactive)

$$$$
>  <Compound>
c1ccc(Nc2nnc(CSc3nc(-c4ccccc4)c(-c4ccccc4)[nH]3)s2)cc1

>  <GI50>
13.3 µM (inactive)

$$$$

[Q] Which GI50 is listed for "COc1ccc(C(=O)c2[nH]c(Nc3cc(C)ccn3)c(C(=S)Nc3ccccc3)c2N)cc1" ?
[A] 21.8 µM (inactive)

[Q] Request the reported GI50 associated with "O=C1CCC[C@@H]2NC[C@@H](c3ccc4c(c3)OCO4)[C@H]12"
[A] > 25 µM (inactive)

[Q] Which GI50 value belongs to CC1CC(C)C(C(O)CC2CC(=O)N(c3ccccc3)C(=O)C2)C(O)C1 (configuration not stated) ?
[A] > 100 µM (inactive)

[Q] Which GI50 reading was recorded for the compound CO[C@@]12[C@H](COC(N)=O)C3=C(C(=O)C(C)=C(N)C3=O)N1C[C@H]1[C@@H]2N1C (some centres not stated) [PORFIROMYCIN] ?
[A] 13.9 µM (inactive)

[Q] Sample CCCCc1ccc(Nc2nc(Cl)c3ccn(C4CC(Oc5ccc(C)cc5)C(COc5ccc(C)cc5)O4)c3n2)cc1 (configuration not stated) — what was its GI50?
[A] 25.6 µM (inactive)

----------
test system: NCI-H522; assay: NCI tumour cell line growth inhibition, 48 h
Calls of active or inactive are those of the source. No stated cut-off is given here; in the data, active = GI50 up to about 1.1 µM and inactive = higher.
Select the matching outcome among yes (active), no (inactive)

Example entries begin here.
>  <Compound>
CCCCc1ccc(Nc2nc(Cl)c3ncn(C4CC(Oc5ccc(C)cc5)C(COc5ccc(C)cc5)O4)c3n2)cc1 (centres undefined)

>  <Label Class>
no

$$$$
>  <Compound>
O=P(CCOc1ccccc1OCCP(=O)(c1ccccc1)c1ccc2c(c1)OCCOCCOCCOCCO2)(c1ccccc1)c1ccc2c(c1)OCCOCCOCCOCCO2 (centres undefined)

>  <Label Class>
no

$$$$
>  <Compound>
CC(C)(C)C#C[P+](c1ccccc1)(c1ccccc1)c1ccccc1

>  <Label Class>
yes

$$$$
>  <Compound>
CN(C)/N=N/c1nc2c(c(=O)n(C)c(=O)n2C)n1C

>  <Label Class>
no

$$$$
>  <Compound>
CC(=O)OCCOCn1c2c(c(=O)[nH]c1=O)CCC2

>  <Label Class>
no

$$$$
>  <Compound>
CC(=O)OCC1OC(n2c3c(c(-c4ccc(C)cc4)c(C#N)c2=S)C(=O)CC(C)(C)C3)C(OC(C)=O)C(OC(C)=O)C1OC(C)=O (centres undefined)

>  <Label Class>
no

$$$$
>  <Compound>
CCCCCCCCCCCCCCCC(=O)OCCOCCOCCOCCOCCOC(=O)CCCCCCCCCCCCCCC

>  <Label Class>
no

$$$$
>  <Compound>
NS(=O)(=O)c1cc(Cl)c(NC(=S)NC(=O)Nc2ccc(Cl)c(Cl)c2)c(Cl)c1

>  <Label Class>
no

$$$$

[Q] Hi, do you know how "CC(=O)NS(=O)(=O)c1ccc(NC(=O)c2c3ccccc3nc3ccccc23)cc1" came out in this test?
[A] no

----------
system: SNB-75; test: NCI tumour cell line growth inhibition, 48 h
Activity calls are given as the source filed them. No stated cut-off is given here; in the data, active = GI50 up to about 1.1 µM and inactive = higher.
Metric Name: GI50

Worked cases, answers included:
>  <Molecule>
On1c(-c2ccccc2)c(-c2ccccc2N2CCCC2)c2ccccc21

>  <GI50>
> 100 µM (inactive)

$$$$
>  <Molecule>
c1cc(-c2cscc2-c2ccsc2)cs1

>  <GI50>
12.3 µM (inactive)

$$$$
>  <Molecule>
c1ccc2sc(C3(N4CCCCC4)CCCCCC3)cc2c1

>  <GI50>
15.2 µM (inactive)

$$$$
>  <Molecule>
CON(C)C(=O)C(Cc1ccccc1)NC(=O)OCc1ccccc1 (stereo unspecified)

>  <GI50>
33.3 µM (inactive)

$$$$

[Q] Record "Cc1cc(S(=O)(=O)Nc2nc3cscc3c(=O)n2N)c(S)cc1Cl" : what is its GI50 with SNB-75?
[A] 15 µM (inactive)

[Q] Recorded GI50 for "Cc1cc2c(cc1C)[n+]([O-])c(N1CCN(c3ccc([N+](=O)[O-])cc3)CC1)c(C#N)[n+]2[O-]" with SNB-75, please?
[A] 4.61 µM (inactive)

[Q] Quick check: GI50 on SNB-75, item "Nc1nc(N)c2ncn(Cc3ccccc3CCl)c2n1" ?
[A] > 100 µM (inactive)

[Q] # value lookup — system SNB-75, readout GI50, item COCOC1/C=C/CCCC#C[C@H](C)C(=O)CC1 (stereo partly specified)
[A] 11.1 µM (inactive)

----------
system: UACC-257; assay: NCI tumour cell line growth inhibition, 48 h
Calls of active or inactive are those of the source. Cut-off read from the data, not from the text of the source: active = GI50 up to about 1.1 µM and inactive = higher.
Each item that follows carries a reported GI50.

These solved cases illustrate the format of a correct answer.
>  <Compound>
COc1ccc(OCC(=O)O)c2c1CCC(C)C2=O (stereo unspecified)

>  <Observed Measurement>
> 100 µM (inactive)

$$$$
>  <Compound>
O=c1[nH]c(-c2ccccc2)nc2cc(Cl)ccc12

>  <Observed Measurement>
> 100 µM (inactive)

$$$$
>  <Compound>
COCOC1/C=C/CCCC#C[C@H](C)C(=O)CC1 (stereo partly specified)

>  <Observed Measurement>
6.05 µM (inactive)

$$$$
>  <Compound>
NC(=O)c1ncn2c1NC(=O)CC2

>  <Observed Measurement>
> 100 µM (inactive)

$$$$
>  <Compound>
C=C1C(=O)OC2/C=C(/C)C(OC(C)=O)C/C=C(\C)C(OC(=O)C3(C)OC3C)C(O)C12 (stereo unspecified)

>  <Observed Measurement>
> 100 µM (inactive)

$$$$

// next entry
[Q] Could you share what GI50 was measured for "O=C1NC(=S)NC(=O)C1=C/C=C/c1ccc([N+](=O)[O-])cc1" , tested on UACC-257?
[A] 12.7 µM (inactive)
